Reference source for all entries: patent US7829589B2

assay.system: UniProt:Q92847
Sequence (Q92847 whole entry, species assumed): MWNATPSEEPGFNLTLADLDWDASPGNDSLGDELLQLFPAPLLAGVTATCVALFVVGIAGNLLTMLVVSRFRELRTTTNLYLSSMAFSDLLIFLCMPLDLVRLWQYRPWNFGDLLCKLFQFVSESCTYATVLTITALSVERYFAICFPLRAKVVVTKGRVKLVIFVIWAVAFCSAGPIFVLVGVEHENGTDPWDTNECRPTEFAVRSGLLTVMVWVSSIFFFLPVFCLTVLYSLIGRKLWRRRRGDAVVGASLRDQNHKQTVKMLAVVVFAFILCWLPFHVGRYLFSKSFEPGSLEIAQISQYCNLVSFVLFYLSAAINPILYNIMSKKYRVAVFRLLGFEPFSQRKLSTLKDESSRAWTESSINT
experiment.summary: GHS-R antagonist activity (Ki) in a cell based assay
pKi: −log10 of the molar value.
Quick reference: pKi of the listed items.

[
  {
    "molecule": "CCN(CC)CCCS(=O)(=O)NCc1nc(-c2ccc(OC)cc2)n[nH]1",
    "assay.system": "UniProt:Q92847",
    "pKi": "6.30 to 7.00"
  },
  {
    "molecule": "CCN(CC)CCCS(=O)(=O)N[C@H](CCc1ccccc1)c1nc(Cc2ccccc2Br)no1",
    "assay.system": "UniProt:Q92847",
    "pKi": "> 7.00"
  },
  {
    "molecule": "CCN(CC)CCCS(=O)(=O)N[C@H](CCc1ccccc1)c1nc(Cc2cccc(Br)c2)no1",
    "assay.system": "UniProt:Q92847",
    "pKi": "> 7.00"
  },
  {
    "molecule": "CCN(CC)CCCS(=O)(=O)N[C@@H](C)c1nc(Cc2ccc(Br)cc2)no1",
    "assay.system": "UniProt:Q92847",
    "pKi": "6.30 to 7.00"
  },
  {
    "molecule": "CCN(CC)CCCS(=O)(=O)N[C@H](COCc1ccccc1)c1nc(-c2ccccc2)n[nH]1",
    "assay.system": "UniProt:Q92847",
    "pKi": "6.30 to 7.00"
  },
  {
    "molecule": "CCN(CC)CCCS(=O)(=O)N[C@H](CCc1ccccc1)c1nc(-c2ccc(C(C)(C)C)cc2)n[nH]1",
    "assay.system": "UniProt:Q92847",
    "pKi": "≤ 6.00"
  },
  {
    "molecule": "CCN(CC)CCCS(=O)(=O)N[C@H](COCc1ccccc1)c1nc(-c2cccnc2)no1",
    "assay.system": "UniProt:Q92847",
    "pKi": "≤ 6.00"
  },
  {
    "molecule": "CCN(CC)CCCS(=O)(=O)NC(C)(C)c1nc(-c2ccc(OC)cc2)no1",
    "assay.system": "UniProt:Q92847",
    "pKi": "6.30 to 7.00"
  },
  {
    "molecule": "CCN(CC)CCCS(=O)(=O)NCc1nc(Cc2ccc(Cl)cc2)n[nH]1",
    "assay.system": "UniProt:Q92847",
    "pKi": "6.30 to 7.00"
  },
  {
    "molecule": "CCN(CC)CCCS(=O)(=O)N[C@H](COCc1ccccc1)c1nc(-c2ccccc2C)no1",
    "assay.system": "UniProt:Q92847",
    "pKi": "≤ 6.00"
  },
  {
    "molecule": "CCN(CC)CCCS(=O)(=O)N[C@H](CCc1ccccc1)c1nc(-c2c[nH]c3ccccc23)n[nH]1",
    "assay.system": "UniProt:Q92847",
    "pKi": "> 7.00"
  },
  {
    "molecule": "CCN(CC)CCCS(=O)(=O)N[C@H](CCc1ccccc1)c1nc(Cc2ccccc2OC)no1",
    "assay.system": "UniProt:Q92847",
    "pKi": "> 7.00"
  },
  {
    "molecule": "CCN(CC)CCCS(=O)(=O)N[C@H](CCc1ccccc1)c1nc(-c2c(C)cccc2C)no1",
    "assay.system": "UniProt:Q92847",
    "pKi": "6.30 to 7.00"
  },
  {
    "molecule": "CCN(CC)CCS(=O)(=O)N[C@H](CCc1ccccc1)c1nc(Cc2ccc3c(c2)OCO3)no1",
    "assay.system": "UniProt:Q92847",
    "pKi": "6.30 to 7.00"
  },
  {
    "molecule": "CCN(CC)CCS(=O)(=O)N[C@H](CCc1ccccc1)c1nc(-c2ccccc2OC)no1",
    "assay.system": "UniProt:Q92847",
    "pKi": "≤ 6.00"
  },
  {
    "molecule": "CCN(CC)CCCS(=O)(=O)N[C@H](CCc1ccccc1)c1nc(-c2ccc(OC)nc2)n[nH]1",
    "assay.system": "UniProt:Q92847",
    "pKi": "> 7.00"
  },
  {
    "molecule": "CCN(CC)CCS(=O)(=O)N[C@H](CCc1ccccc1)c1nc(CCOC)no1",
    "assay.system": "UniProt:Q92847",
    "pKi": "6.00 to 6.30"
  },
  {
    "molecule": "CCN(CC)CCCS(=O)(=O)N[C@H](CCc1ccccc1)c1nc(-c2ccccn2)no1",
    "assay.system": "UniProt:Q92847",
    "pKi": "6.00 to 6.30"
  },
  {
    "molecule": "CCN(CC)CCCS(=O)(=O)N[C@H](CCc1ccccc1)c1nc(-c2ccccc2OC)no1",
    "assay.system": "UniProt:Q92847",
    "pKi": "6.00 to 6.30"
  },
  {
    "molecule": "CCN(CC)CCS(=O)(=O)N[C@H](CCc1ccccc1)c1nc(-c2ccccc2)no1",
    "assay.system": "UniProt:Q92847",
    "pKi": "6.30 to 7.00"
  },
  {
    "molecule": "CCN(CC)CCS(=O)(=O)N[C@H](CCc1ccccc1)c1nc(-c2ccc(C)cc2)no1",
    "assay.system": "UniProt:Q92847",
    "pKi": "6.30 to 7.00"
  },
  {
    "molecule": "CCN(CC)CCCS(=O)(=O)N[C@H](CCc1ccccc1)c1nc(-c2cccc(Br)c2)n[nH]1",
    "assay.system": "UniProt:Q92847",
    "pKi": "> 7.00"
  },
  {
    "molecule": "CCN(CC)CCCS(=O)(=O)N1CCC[C@H]1c1nc(-c2ccc(OC)cc2)no1",
    "assay.system": "UniProt:Q92847",
    "pKi": "6.30 to 7.00"
  },
  {
    "molecule": "CCN(CC)CCCS(=O)(=O)N[C@H](CCc1ccccc1)c1nc(C2CNc3ccccc3O2)n[nH]1 (some centres unmarked)",
    "assay.system": "UniProt:Q92847",
    "pKi": "> 7.00"
  },
  {
    "molecule": "CCN(CC)CCCS(=O)(=O)N[C@H](CCc1ccccc1)c1nc(-c2ccc(Br)cc2C)no1",
    "assay.system": "UniProt:Q92847",
    "pKi": "6.30 to 7.00"
  },
  {
    "molecule": "CCN(CC)CCCS(=O)(=O)N[C@H](CCc1ccccc1)c1nc(-c2cccc(Br)c2)no1",
    "assay.system": "UniProt:Q92847",
    "pKi": "> 7.00"
  },
  {
    "molecule": "CCN(CC)CCCS(=O)(=O)N[C@H](CCc1ccccc1)c1nc(-c2cncn2C)n[nH]1",
    "assay.system": "UniProt:Q92847",
    "pKi": "> 7.00"
  },
  {
    "molecule": "CCN(CC)CCCS(=O)(=O)N[C@H](CCc1ccccc1)c1nc(-c2csc(C)n2)n[nH]1",
    "assay.system": "UniProt:Q92847",
    "pKi": "> 7.00"
  },
  {
    "molecule": "CCN(CC)CCCS(=O)(=O)N[C@H](Cc1ccccc1)c1nc(-c2ccc(OC)cc2)n[nH]1",
    "assay.system": "UniProt:Q92847",
    "pKi": "6.30 to 7.00"
  },
  {
    "molecule": "CCN(CC)CCCS(=O)(=O)N[C@H](CCc1ccccc1)c1nc(Cc2ccccc2Cl)no1",
    "assay.system": "UniProt:Q92847",
    "pKi": "> 7.00"
  },
  {
    "molecule": "CCN(CC)CCCS(=O)(=O)N[C@H](CCc1ccccc1)c1nc(Cc2ccc(F)c(F)c2)n[nH]1",
    "assay.system": "UniProt:Q92847",
    "pKi": "6.30 to 7.00"
  },
  {
    "molecule": "CCN(CC)CCCS(=O)(=O)N[C@H](CCc1ccccc1)c1nc(-c2c(OC)cccc2OC)no1",
    "assay.system": "UniProt:Q92847",
    "pKi": "6.00 to 6.30"
  }
]
